measurementDescription: in vivo
protocolConditions: mouse, po, mice, orally 200 mg/kg, read-out: Percentage of mortality
recordedEndpoint: mortality (%)

> print(dat)
                                   compound  recordedendpoint  result
1  NC1=NCC(CN2CCCCC2)O1 (stereo not shown) [Example 4, 2-amino-5-piperidinomethyl-2-oxazoline]         mortality       0

---

measurementDescription: in vivo
protocolConditions: mouse, ip, mice, intraperitoneally 200 mg/kg, read-out: Percentage of mortality
recordedEndpoint: mortality (%)

> print(dat)
                                    compound  result
 1   NC1=NCC(CN2CCCCC2)O1 (stereo not shown)     100
 2  C=CCN1CCN(CC2CN=C(N)O2)CC1 (stereo not shown)       0
 3   CCCCN(C)CC1CN=C(N)O1 (stereo not shown)     100
 4    CCN(CC)CC1CN=C(N)O1 (stereo not shown)       0
 5  NC1=NCC(CN2CCN(Cc3ccccc3)CC2)O1 (stereo not shown)     100
 6  CC1CCN(CC2CN=C(N)O2)CC1 (stereo not shown)     100
 7  NC1=NCC(CN2CCC(Cc3ccccc3)CC2)O1 (stereo not shown)     100
 8  CN1CCN(CC2CN=C(N)O2)CC1 (stereo not shown)       0
 9  CCC1CCCCN1CC1CN=C(N)O1 (stereo not shown)       0
10    NC1=NCC(CN2CCCC2)O1 (stereo not shown)     100

---

mortality overview
measurementDescription: in vivo
protocolConditions: mouse, po, mice, orally 300 mg/kg, read-out: Percentage of mortality
recordedEndpoint: mortality (%)

> print(dat)
                                   compound  recordedendpoint  result
1  CCC1CCCCN1CC1CN=C(N)O1 (centres unmarked)         mortality       0
2  NC1=NCC(CN2CCC(Cc3ccccc3)CC2)O1 (centres unmarked)         mortality     100
3    NC1=NCC(CN2CCCC2)O1 (centres unmarked)         mortality       0
4   NC1=NCC(CN2CCCCC2)O1 (centres unmarked)         mortality      33
5  C=CCN1CCN(CC2CN=C(N)O2)CC1 (centres unmarked)         mortality       0

---

measurementDescription: in vivo
protocolConditions: mouse, po, mice, orally 100 mg/kg (footnote 1), read-out: Percentage of mortality
recordedEndpoint: mortality (%)

> print(dat)
                                   compound  recordedendpoint  result
1  NC1=NCC(CN2CCC(Cc3ccccc3)CC2)O1 (stereo not shown) [Example 12]         mortality       0
